Attribution: PubChem BioAssay (NCI)

ASSAY: NCI Yeast Anticancer Drug Screen. Data for the bub3 strain (AID 167)
CONDITIONS: S. cerevisiae bub3 mutant strain, at 5.0 µM (retest, dose inferred, filed as 0.5)
The panel holds about 79,000 compounds, 15% with a hit somewhere; the sample as a whole holds those more often. Active and inactive are the calls of the source. Cut-off read from the data, not from the text of the source: active = growth inhibition above about 70%; inactive = the rest.
Labels: active, inactive

COMPOUND: Cc1ccc(S(=O)(=O)N=S(=O)(CCCl)CCCl)cc1
QUALITATIVE_LABEL: inactive
--
COMPOUND: O=[N+]([O-])c1cc(Cl)ccc1S(=O)(=O)F
QUALITATIVE_LABEL: active
--
COMPOUND: COc1ccc(Br)c(/C=C/[N+](=O)[O-])c1
QUALITATIVE_LABEL: inactive
--
COMPOUND: CC[C@@H](C)[C@@H]1NC(=O)C(NC(=O)C(CC(C)C)N(C)C(=O)C2CCCN2C(=O)C(C)O)C(C)OC(=O)C(Cc2ccc(OC)cc2)N(C)C(=O)C2CCCN2C(=O)C(CC(C)C)NC(=O)C(C)C(=O)C(C(C)C)OC(=O)C[C@H]1O (some centres undefined)
QUALITATIVE_LABEL: inactive
